Hey, just so you know, these numbers are from paper PMC7822874.

system: P. berghei-ANKA-GFP-LucCON liver stage parasites in HepG2-A16-CD81EGFP cells; experiment: P. berghei liver stage Pb-Luc assay, Method 1 (UCSD, 1536-well); type: cell-based, Plasmodium berghei; details: Plasmodium berghei, Method 1; Hill fit, 50% of maximum activity response; read-out: AC50
AC50 strictly less than 1000 nM = met. Otherwise not met.

Please review the following examples before continuing.
CC1=C[C@@H](CNCc2cccnc2)[C@H](C(C)C)C[C@H]1Cc1nnc(-c2ccc([N+](=O)[O-])cc2)o1 [NCGC00394797-01] | not met
Cc1ccc(C)c(NC2=C(c3ccc(C(F)(F)F)cc3)C(=O)c3ccccc32)c1 [NCGC00107302-01] | not met
Cc1cccc(N(C)c2nc3ccccc3c3nnc(C)n23)c1 [NCGC00126108-01] | met
O=C(Cc1c[nH]c2ncc(-c3ccc(Cl)cc3)cc12)NCc1cccnc1 [NCGC00412438-01] | not met
COc1ccc(-n2nc(C)c([C@@H]3C=C[C@@H](NCc4ccc(F)cc4)C3)c2C)cc1 [NCGC00421412-01] | not met
CCCN1C(CC(C)C)=N[S+](=O)([O-])c2cc(NC(=O)c3ccco3)ccc21 [NCGC00473219-01] | met

Bench note: check whether O=C(Nc1ccc(-c2csc(Nc3ccccc3)n2)cc1)c1cc([N+](=O)[O-])cc(C(F)(F)F)c1 [MLS000911606-01] shows AC50 below 1000 nM
not met

Bench note: check whether O=C(Nc1ccc2c(N3CCOCC3)ncnc2c1)c1cccc(Br)c1 [NCGC00425561-01] shows AC50 below 1000 nM
not met

----------
experiment: in vitro; conditions: human
readout-kind: viability at 48 h, 3 µM (%)
Answers are plain numbers, in %.

Below are worked cases with known answers.
COc1ccc2ccc(O)c(CN3CC=C(c4ccccc4)CC3)c2c1 [MLS000760157-01] | 101
CCC(CC)c1cc([C@H]2CN3CC[C@H]2C[C@@H]3CN[S+](=O)([O-])c2ccccc2C#N)nc(-c2ccncc2)n1 [NCGC00421343-01] | 110
CCC(CC)c1cc([C@H]2CN3CC[C@H]2C[C@@H]3CNC(=O)COc2ccccc2)nc(-c2ccncc2)n1 [NCGC00420983-01] | 101

Pending compound:
Please report the measured viability at 48 h, 3 µM for COc1cccc([C@@H]2CCN(Cc3[nH]c4ccccc4c3C)C[C@H]2O)c1 [NCGC00443267-01]
96.2

----------
test: in vitro; conditions: human, hepg2-a16-cd81egfp cells, % viability
readout-kind: viability at 3 µM (%)
Answers are plain numbers, in %.

Below are worked cases with known answers.
CC[C@@]1(c2ccccc2OC)ON(c2ccccc2C(F)(F)F)C1=O [MLS002206609] | 92.6
CCN(CC)CCOC(=O)c1ccc(N/C=C(/C#N)c2nc(-c3ccc4c(c3)OCO4)cs2)cc1 [MLS000769346] | 100

Fill in viability at 3 µM for each of the 8 compounds listed.
1. Cc1ccc(S(=O)(=O)N2CCN(/C(S)=N/Cc3ccc4c(c3)OCO4)CC2)cc1 [MLS001002637]
2. COc1ccccc1CNC(=O)CCn1c(=O)[nH]c2ccsc2c1=O [MLS000044764]
3. O=C(N/N=C(/c1ccccc1)c1cccnc1)c1cccc(F)c1 [MLS001224623]
4. CNc1ccc2oc(C[C@@H]3OC4(CC[C@@H]3C)O[C@H]([C@@H](C)C(=O)c3ccc[nH]3)[C@H](C)C[C@H]4C)nc2c1C(=O)O (some centres unmarked) [NCGC00161647]
5. CC(C)(C)N1C(=O)c2ccc(C(=O)Nc3ccc(-c4nc5ccccc5[nH]4)cc3)cc2C1=O [MLS000567491]
6. FC(F)(F)c1cccc(Nc2nc3nonc3nc2Nc2ccc(Cl)cc2)c1 [NCGC00100377]
7. Cc1ccc(O)c(-c2cc(C(=O)Nc3ccc([S+](=O)([O-])N4CC(C)OC(C)C4)cc3)n[nH]2)c1 (centres unmarked) [NCGC00071593]
8. Cc1nnsc1[S+]([O-])c1ccc(Cl)cc1 (centres unmarked) [MLS001166465]

1: 97.3; 2: 109; 3: 32; 4: 12.5; 5: 104; 6: 47.1; 7: 97; 8: 96.9

Fill in viability at 3 µM for each of the 7 compounds listed.
1. COc1ccccc1CNCC(O)Cn1c2ccccc2c2ccccc21 (centres unmarked) [MLS000391556]
2. CCc1ccccc1OC[C@@H](O)CN[C@@H]1CCCc2ccccc21 [NCGC00025196]
3. Cc1cc(C)c(-c2csc(NC(=O)CCCc3nc4ccccc4c(=O)[nH]3)n2)c(C)c1 [MLS001156669]
4. O[C@H]1[C@H]2c3cc4c(cc3CN3CCC(=C[C@@H]1O)[C@@H]23)OCO4 [NCGC00262562]
5. CCOc1cc(C(=O)N2CCC(CC3CC(c4ccc(Cl)cc4)=NO3)(C(=O)NCC3CCCCC3)CC2)cc(OCC)c1OCC (centres unmarked) [MLS001143937]
6. CCC(=O)N1CCc2cc(Br)cc(S(=O)(=O)N3CCCCC3CC)c21 (centres unmarked) [MLS000936752]
7. CCN(CC)CCCN(c1ccccc1)C1Cc2ccccc2C1 [NCGC00167576]

1: 92.6; 2: 91.7; 3: 103; 4: 83.5; 5: 93.2; 6: 90.3; 7: 99.6

Fill in viability at 3 µM for each of the 4 compounds listed.
1. CCOc1cccc(CNCCc2c(C)[nH]c3ccc(OC(F)(F)F)cc23)c1O [MLS001198351]
2. CCc1nc(N)nc(N)c1-c1ccc(Cl)cc1 [NCGC00023188]
3. CCOC(=O)c1c(CN(C)C)oc2cc(CN(C)C)c(O)c(CSc3ccccc3)c12 [MLS000038262]
4. Cc1ccc(-c2cc3c(nn2)-c2ccccc2C3=O)cc1 [MLS000104226]

70.5
95.9
104
76.2

Fill in viability at 3 µM for each of the 5 compounds listed.
1. Oc1ccc(CN2CCCCC2)nc1-c1ccccc1 [MLS000031925]
2. C=C(C)CSc1nc2sc3c(c2c(=O)n1-c1ccccc1)CCN(C)C3 [MLS001173616]
3. O=C(CCCCCCC(=O)Nc1ccccc1)NO [NCGC00168085]
4. O=C(Nc1cccnc1)c1cn(-c2ccccc2)nc1-c1cccs1 [MLS000081870]
5. O=C1c2ccccc2-n2c1nc1ccccc1c2=O [MLS001049121]

99.7
98.7
45.6
100
81.6

----------
For each entry below, report its activity at 1 µM value.
system: P. berghei-ANKA-GFP-LucCON liver stage parasites in HepG2-A16-CD81EGFP cells; test: P. berghei liver stage Pb-Luc assay, Method 1 (UCSD, 1536-well); format: cell-based, Plasmodium berghei; settings: Plasmodium berghei, 48 h, nominal 1 uM (10 mM stock); […] for 15 mM, 1.2 uM for 12 mM, 2 uM for 20 mM stock; average of 2 wells, 1536-well plate; repeat 1; read-out: Pb-Luc signal, 1 uM, repeat 1; on Pb-Luc signal, 1 uM, repeat 1: reference of the scale not given here
One number for each entry, in %.

Below are worked cases with known answers.
Cc1nn2c(c1-c1ccccc1-c1ccccc1)N(CC1CC1)CCC2 [NCGC00420435-01] | 52.9
Cc1nn2c(c1-c1ccccc1Oc1ccccc1)N(Cc1ccccc1O)CCC2 [NCGC00420455-01] | 75.6
COc1ccc(-c2cc(C(F)(F)F)nc(SCCC(=O)Nc3cc(C)ccc3O)n2)cc1 [NCGC00101472-01] | 38.3
CCOC(=O)C1(Cc2ccccc2Cl)CCNCC1 [NCGC00430911-01] | 78.1

Pending compound:
Please report the measured activity at 1 µM for Fc1ccc(N2CCCN(C[C@H]3[C@@H]4CNC[C@@H]43)CC2)cc1 [NCGC00435915-01]
97.7

----------
assay: in vitro; settings: human, HepG2-A16-CD81EGFP cells, uninfected
viability at 48 h, 3 µM strictly less than 90% = label 1. Otherwise label 0.

CCOC(=O)C1(Cc2ccccc2Cl)CCNCC1 | label 0
Oc1cc(Nc2ccc(N3CCCCC3)cc2)cc2cccnc12 | label 0
COc1ccccc1NC(=O)Cn1cccc1-c1nc(-c2ccc(F)cc2)no1 | label 0
COc1ccccc1NC(=O)CN1CCN(C(=O)c2ccco2)CC1 | label 0
COc1ccc(/C=N/Nc2cc(C)nc3ccccc23)cc1 | label 1

Bench note: check whether `COc1ccc(Cc2nnc(NC(=O)c3ccc(OC)cc3OC)s2)cc1` shows viability at 48 h, 3 µM below 90%
label 0

Bench note: check whether `CC(C)(C)CC(C)(C)c1ccc(O)c(CN2CCN(CCC#N)CC2)c1` shows viability at 48 h, 3 µM below 90%
label 0

----------
tested on: Plasmodium falciparum Dd2 asexual blood stage parasites; test: microbe, parasite or virus in culture; set-up: species or system Plasmodium falciparum Dd2 in human erythrocytes; single determination (one 11-point concentration-response curve); settings: Plasmodium falciparum, DD2, Erythrocyte, 72 h; read-out: AC50
readout-kind: AC50 (µM)
Numbers only, in µM.

COc1ccc(CNCc2cc3c(C(C)(C)C)nn(-c4ccccc4)c3[nH]c2=O)cc1 [MLS000067276-01] | 0.841
Cc1oc2ccc(O)c(CN3CCN(Cc4ccccc4)CC3)c2c1C(=O)Nc1cccc(Cl)c1C [NCGC00115656-01] | 0.596
COC(=O)c1cnn(-c2ccc(C(=O)Nc3ccc(OC(F)(F)F)cc3)cc2)c1N [NCGC00137710-01] | 4.73
O=C(Nc1ccc(Br)cc1)c1ccc(F)c([S+](=O)([O-])NC2CCCCCC2)c1 [NCGC00139407-01] | 9.44

Fill in AC50 for each of the 3 compounds listed.
1. Clc1ccc2c(N3CCCC3)ccnc2c1 [MLS000049600-01]
2. CC(=O)C1=C(c2ccccc2)N(C(C)=O)n2c(nnc2C2CCCCC2)S1 [NCGC00137174-01]
3. COc1cc(OC)c(NC2=CC(=O)C(=O)c3ccccc32)cc1Cl [MLS001198657-01]

1: 3.76; 2: 4.22; 3: 2.99
